tested on: Mouse IgG1 monoclonal antibody (including anti-streptavidin) (Mus musculus); experiment: EMSA; details: T = 5-ethynyldeoxyuridine clicked with sulfo-HSAB (NHS ester); core of consensus SEQ:22, flanks not given; half-maximal covalent binding (estimate), Kd not determinable; Cu(II) dependent

- SEQUENCE CONTENT: "AGCGCGGAACCGTGCCTGGC [Fc clone 1]"
  STUDY TARGET: "Mouse IgG1 monoclonal antibody (including anti-streptavidin) (Mus musculus)"
  EC50: "< 10 nM"
